pIC50: −log10 of the molar value.
Endpoint summary: pIC50, system: PKMYT1 (Homo sapiens), multiple sources combined.

Guide cases for pIC50, answers given:
[
  {
    "Compound": "Cc1ccc(O)c(C)c1-c1c(N)c(C(N)=O)cc2c1nc(C(F)F)n2-c1ncccc1F (atropisomer, axis not shown; (P))",
    "Reported Endpoint": "pIC50",
    "Assay Result": "> 7.30"
  },
  {
    "Compound": "CC(C)n1c(=O)c2cnc(Nc3ccc4c(c3)CCNC4)nc2n1-c1ccc(F)c(C(C)(C)O)n1",
    "Reported Endpoint": "pIC50",
    "Assay Result": 4.70
  },
  {
    "Compound": "Cc1ccc(O)c(C)c1-c1c(N)c(C(N)=O)nc2c(C)cccc12 (single isomer, unassigned)",
    "Reported Endpoint": "pIC50",
    "Assay Result": "≤ 5.30"
  }
]

Proceeding to the next compound to report its pIC50.
Request: Provide the documented pIC50 with PKMYT1 (Homo sapiens) as the system for Cc1c(O)cccc1-c1cc(C(N)=O)nc2c(C)ccc(C)c12
Response: ≤ 5.30

----------
pIC50: −log10 of the molar value.
Endpoint summary: pIC50, system: PKMYT1 (Homo sapiens), multiple sources combined.

[
  {
    "Molecule": "Cn1cc(C#N)c2c(-c3cncc(Cl)c3Cl)c(N)c(C(N)=O)nc21",
    "Target Under Test": "PKMYT1 (Homo sapiens)",
    "Assay Result": "> 7.30"
  },
  {
    "Molecule": "Cc1ccc2[nH]ncc2c1-c1c(N)c(C(N)=O)cc2cccnc12",
    "Target Under Test": "PKMYT1 (Homo sapiens)",
    "Assay Result": "6.30 to 7.30"
  },
  {
    "Molecule": "Cc1ccc(O)c(C)c1-c1c(N)c(C(N)=O)nc2c1c(C#N)cn2C",
    "Target Under Test": "PKMYT1 (Homo sapiens)",
    "Assay Result": "> 7.30"
  },
  {
    "Molecule": "Cc1[nH]nc2cccc(-c3cc(C(N)=O)nc4ccccc34)c12",
    "Target Under Test": "PKMYT1 (Homo sapiens)",
    "Assay Result": "≤ 5.30"
  },
  {
    "Molecule": "Cc1ccc(O)c(C)c1-c1c(N)c(C(N)=O)cc2nccnc12 (single isomer, unassigned)",
    "Target Under Test": "PKMYT1 (Homo sapiens)",
    "Assay Result": "> 7.30"
  }
]

Request: # query: pIC50 of entry COc1cncc(C2=c3ncccc3=NC(C(N)=O)C2N)c1C (stereo not shown)
Response: 6.30 to 7.30

Request: Same question for CCn1cc(-c2cn[nH]c2)c2c(-c3c(C)ccc(O)c3C)cc(C(N)=O)nc21 (single isomer, unassigned) please.
Response: > 7.30

Request: Same question for Cc1cnc2c(-c3c(C)ccc(O)c3C)c(N)c(C(N)=O)cc2n1 please.
Response: > 7.30

Request: Same question for Cc1cc2nc(N)sc2cc1-c1c(N)c(C(N)=O)cc2nccnc12 please.
Response: 5.30 to 6.00

Request: Same question for CC(C)n1c(=O)c2cnc(Nc3ccc4c(c3)CCNC4)nc2n1-c1csc(C2CC2)n1 please.
Response: 4.54

Request: Same question for Cc1ccc(O)c(C)c1-c1cc(C(N)=O)cc2cccnc12 please.
Response: 6.00 to 6.30

----------
pIC50: −log10 of the molar value.
Endpoint summary: pIC50, system: PKMYT1 (Homo sapiens, UniProt Q99640), multiple sources combined.
Sequence (Q99640 whole entry): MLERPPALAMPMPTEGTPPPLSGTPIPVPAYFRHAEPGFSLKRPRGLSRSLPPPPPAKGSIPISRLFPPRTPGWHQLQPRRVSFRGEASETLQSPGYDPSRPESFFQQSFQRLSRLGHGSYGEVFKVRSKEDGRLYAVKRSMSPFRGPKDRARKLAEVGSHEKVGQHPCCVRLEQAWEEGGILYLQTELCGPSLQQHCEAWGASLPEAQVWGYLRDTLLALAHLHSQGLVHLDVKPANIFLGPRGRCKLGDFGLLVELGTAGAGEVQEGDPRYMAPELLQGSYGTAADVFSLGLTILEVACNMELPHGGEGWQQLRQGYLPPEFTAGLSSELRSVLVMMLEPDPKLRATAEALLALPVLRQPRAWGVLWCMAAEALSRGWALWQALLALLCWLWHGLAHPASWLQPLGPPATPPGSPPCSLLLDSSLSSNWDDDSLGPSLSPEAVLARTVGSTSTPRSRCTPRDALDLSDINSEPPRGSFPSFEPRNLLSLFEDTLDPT

[
  {
    "Compound": "CCn1cc(C#N)c2c(-c3c(C)ccc(O)c3C)cc(C(N)=O)nc21",
    "Target Under Test": "PKMYT1 (Homo sapiens, UniProt Q99640)",
    "pIC50": "> 7.30"
  },
  {
    "Compound": "NC(=O)c1cc2nccnc2c(-c2cc(O)ccc2C(F)(F)F)c1N",
    "Target Under Test": "PKMYT1 (Homo sapiens, UniProt Q99640)",
    "pIC50": "≤ 5.30"
  },
  {
    "Compound": "COc1ccnc2cc(C(N)=O)c(N)c(-c3cccc(O)c3C)c12",
    "Target Under Test": "PKMYT1 (Homo sapiens, UniProt Q99640)",
    "pIC50": "6.30 to 7.30"
  },
  {
    "Compound": "CCn1cc(C#N)c2c(-c3cccc(O)c3C)c(N)c(C(N)=O)nc21 (atropisomer, axis not shown; (M))",
    "Target Under Test": "PKMYT1 (Homo sapiens, UniProt Q99640)",
    "pIC50": "> 7.30"
  },
  {
    "Compound": "CC(C)n1c(=O)c2cnc(Nc3ccc4c(c3)CCNC4)nc2n1-c1cccc(C2(C#N)CC2)n1",
    "Target Under Test": "PKMYT1 (Homo sapiens, UniProt Q99640)",
    "pIC50": 5.25
  }
]

Proceeding to the next compound to report its pIC50.
Request: # query: pIC50 of entry COc1cccc(-c2cc(C(N)=O)nc3c(C)ccc(C)c23)c1C
Response: ≤ 5.30
